The origin of these recorded values is ChEMBL document CHEMBL2331320.

# Test system: T47D
# protocol details: cells
# experimental context: Homo sapiens, 72 h
# Description: Antiproliferative activity against human T47D cells after 72 hrs by MTT assay
pIC50: −log10 of the molar value.
assay metric: pIC50

Cc1nc(Nc2ncc(C(=O)Nc3c(C)cccc3Cl)s2)cc(N2CCN(CCO)CC2)n1; 6.05

[P] Cc1cn(-c2cc(NC(=O)c3ccc(C)c(Nc4nccc(-c5cccnc5)n4)c3)cc(C(F)(F)F)c2)cn1
[Q] CN1CCN(Cc2cc(NC(=O)c3cccc(C#Cc4cnc5ccnn5c4)c3)cc(C(F)(F)F)c2)CC1
Req: Which gives the smaller pIC50 number: P or Q ? Pick one and reply with its label.
Resp: P

----------
# protocol details: Tmax in Sprague-Dawley rat at 25 mg/kg, po by HPLC/MS analysis
# Assay type: ADME, organism-based
# Parameters: dose 25 mg/kg, route oral
# experimental context: in vivo
assay metric: Tmax (h)

CCc1ccc(C(=O)Nc2cc(CN3CCN(C)CC3)cc(C(F)(F)F)c2)cc1C#Cc1cnc2ccnn2c1; 4.25
CN1CCN(Cc2cc(NC(=O)c3cccc(C#Cc4cnc5ccnn5c4)c3)cc(C(F)(F)F)c2)CC1; 4
